Data provenance is ChEMBL document CHEMBL3853331.

- protocol: Drug uptake in Wistar rat brain at 100 mg/kg, po measured after 1 hr
- Assay type: ADME, organism-based
- particulars: read-out: Drug uptake

{"columns": ["compound", "concentration at 1 h (µM)"],
 "data": [
  ["O=C(Nc1ccc(F)cc1)N1N=C(c2ccncc2)CC1c1ccc(F)cc1 (stereo unspecified)", 4.27]
]}

====

- protocol: Plasma concentration in Wistar rat at 30 mg/kg, po measured after 1 hr
- Format: ADME, organism-based
parameter: concentration at 1 h (nM)

{"columns": ["compound", "measured.number"],
 "data": [
  ["O=C(Nc1ccc(F)cc1)N1N=C(c2ccncc2)CC1c1ccc(F)cc1 (stereo unspecified)", 630]
]}
